System: Rattus norvegicus
test-name: Gastrointestinal toxicity in Wistar Rattus norvegicus (rat) assessed as ulcerogenicity index at 210 mg/kg, po (reference value: 0 No unit)
Type: organism-based
Parameters: dose 210 mg/kg, route oral
condition-info: in vivo
Rule for this label: Met means UI is less than 2; Not met means UI is at least 2.

> print(dat)
                                   molecule      tested.system  assigned.class
1  Clc1ccc(-c2nnc(Nc3nc4ccc(Cl)cc4s3)o2)c(Cl)c1  Rattus norvegicus             Met
2  Cc1ccccc1-c1nn2c(Nc3nc4ccc(Cl)cc4s3)nnc2s1  Rattus norvegicus             Met
3  Clc1ccc(-c2nn3c(Nc4nc5ccc(Cl)cc5s4)nnc3s2)c(Cl)c1  Rattus norvegicus             Met
4      Clc1ccc2nc(Nc3nnc(Oc4ccccc4)o3)sc2c1  Rattus norvegicus             Met
5      Clc1ccc2nc(Nc3nnc(-c4ccccc4)o3)sc2c1  Rattus norvegicus             Met
6  CC(C)Cc1ccc(C(C)C(=O)O)cc1 (stereo not drawn)  Rattus norvegicus         Not met
7  Clc1ccc2nc(Nc3nnc4sc(Oc5ccccc5)nn34)sc2c1  Rattus norvegicus             Met
8              Sc1nnc(Nc2nc3ccc(Cl)cc3s2)o1  Rattus norvegicus         Not met

###

Tested on: Mus musculus
test-name: Analgesic activity in Swiss albino Mus musculus (mouse) assessed as time required for tail withdrawal at 70 mg/kg, po measured after 4 hr by tail immersion method
Format: functional
Rule for this label: fulfilled means Time is less than 2 s; not fulfilled means Time is at least 2 s.

> print(dat)
                                   compound  assigned.class
1              Sc1nnc(Nc2nc3ccc(Cl)cc3s2)o1   not fulfilled
2  CC(C)Cc1ccc(C(C)C(=O)O)cc1 (stereo not drawn)   not fulfilled
3  Clc1ccc(-c2nn3c(Nc4nc5ccc(Cl)cc5s4)nnc3s2)c(Cl)c1   not fulfilled
4  Cc1ccccc1-c1nn2c(Nc3nc4ccc(Cl)cc4s3)nnc2s1   not fulfilled
5  Clc1ccc(-c2nnc(Nc3nc4ccc(Cl)cc4s3)o2)c(Cl)c1   not fulfilled
6  Clc1ccc2nc(Nc3nnc4sc(Oc5ccccc5)nn34)sc2c1   not fulfilled
7      Clc1ccc2nc(Nc3nnc(Oc4ccccc4)o3)sc2c1       fulfilled
8      Clc1ccc2nc(Nc3nnc(-c4ccccc4)o3)sc2c1       fulfilled

###

Test system: Rattus norvegicus
test-name: Effect on lipid peroxidation in Wistar Rattus norvegicus (rat) gastric mucosa assessed as malondialdehyde content at 210 mg/kg, po measured per 100 mg of tissue by UV spectrophotometric analysis (reference value: 3.26 +/-0.01 nmol)
Assay type: ADME, organism-based
Design: dose 210 mg/kg, route oral
condition-info: in vivo
reported-metric: Activity (nmol)

> print(dat)
                                   compound  test.result
1      Clc1ccc2nc(Nc3nnc(Oc4ccccc4)o3)sc2c1          9.1
2  Clc1ccc(-c2nn3c(Nc4nc5ccc(Cl)cc5s4)nnc3s2)c(Cl)c1         5.74
3  Cc1ccccc1-c1nn2c(Nc3nc4ccc(Cl)cc4s3)nnc2s1         7.44
4              Sc1nnc(Nc2nc3ccc(Cl)cc3s2)o1         9.04
5  CC(C)Cc1ccc(C(C)C(=O)O)cc1 (stereo not drawn)         7.51
6  Clc1ccc(-c2nnc(Nc3nc4ccc(Cl)cc4s3)o2)c(Cl)c1         3.29
7      Clc1ccc2nc(Nc3nnc(-c4ccccc4)o3)sc2c1         4.47
8  Clc1ccc2nc(Nc3nnc4sc(Oc5ccccc5)nn34)sc2c1         3.04

###

System: Rattus norvegicus
test-name: Anti-inflammatory activity in Wistar Rattus norvegicus (rat) assessed as inhibition of carrageenan-induced paw edema at 70 mg/kg, po administered 1 hr prior to carrageenan-challenge measured after 4 hr by plethysmometer analysis
Assay type: functional
Quick reference: inhibition in vivo at 70 mg/kg of the listed items.
reported-metric: inhibition in vivo at 70 mg/kg

> print(dat)
                            smiles.structure                 reported.metric  test.result
 1  CC.O=[N+]([O-])c1ccc(-c2nnc(Nc3nc4ccc(Cl)cc4s3)o2)cc1  inhibition in vivo at 70 mg/kg        32.5%
 2    Clc1ccc2nc(Nc3nnc(-c4ccccc4Cl)o3)sc2c1  inhibition in vivo at 70 mg/kg        53.2%
 3      Clc1ccc2nc(Nc3nnc(-c4ccccc4)o3)sc2c1  inhibition in vivo at 70 mg/kg        88.3%
 4  Clc1ccc2nc(Nc3nnc4sc(-c5ccccc5Cl)nn34)sc2c1  inhibition in vivo at 70 mg/kg        50.8%
 5     Cc1ccccc1-c1nnc(Nc2nc3ccc(Cl)cc3s2)o1  inhibition in vivo at 70 mg/kg        37.7%
 6  Clc1ccc(-c2nnc(Nc3nc4ccc(Cl)cc4s3)o2)c(Cl)c1  inhibition in vivo at 70 mg/kg        87.1%
 7      Clc1ccc2nc(Nc3nnc(Oc4ccccc4)o3)sc2c1  inhibition in vivo at 70 mg/kg        88.8%
 8  CC(=O)Oc1ccccc1-c1nn2c(Nc3nc4ccc(Cl)cc4s3)nnc2s1  inhibition in vivo at 70 mg/kg        20.6%
 9  O=[N+]([O-])c1ccc(-c2nn3c(Nc4nc5ccc(Cl)cc5s4)nnc3s2)cc1  inhibition in vivo at 70 mg/kg        66.7%
10              Sc1nnc(Nc2nc3ccc(Cl)cc3s2)o1  inhibition in vivo at 70 mg/kg        69.8%
11  Clc1ccc(-c2nn3c(Nc4nc5ccc(Cl)cc5s4)nnc3s2)c(Cl)c1  inhibition in vivo at 70 mg/kg        89.6%

###

System: Rattus norvegicus
test-name: Anti-inflammatory activity in Wistar Rattus norvegicus (rat) assessed as inhibition of carrageenan-induced paw edema at 70 mg/kg, po administered 1 hr prior to carrageenan-challenge measured after 4 hr by plethysmometer analysis
Format: functional
reported-metric: inhibition in vivo at 70 mg/kg (%)

> print(dat)
                                   compound  test.result
1  Cc1ccccc1-c1nn2c(Nc3nc4ccc(Cl)cc4s3)nnc2s1         88.8
2  CC(=O)Oc1ccccc1-c1nnc(Nc2nc3ccc(Cl)cc3s2)o1         50.8
3  Clc1ccc2nc(Nc3nnc4sc(Oc5ccccc5)nn34)sc2c1         89.7
4  CC(C)Cc1ccc(C(C)C(=O)O)cc1 (stereo not given)         82.7
5  Clc1ccc2nc(Nc3nnc4sc(-c5ccccc5)nn34)sc2c1         57.9
